Listed here: items and their measured log10(solubility).
Where a SMILES comes first, the peptide text is derived from it.
Metric Name: log10(solubility) (log10 of the value in mM)

{"Compound": "O=C(O)/C=C/CBr", "log10(solubility)": 2.26}
{"Compound": "C[Si](C)(C)CN", "log10(solubility)": 1.24}
{"Compound": "CC(=O)c1ccc(O)c(C(=O)O)c1", "log10(solubility)": 0.77}
{"Compound": "CC(NC(=O)C=CC(=O)O)C(=O)O (centres undefined)", "log10(solubility)": 2.03}
{"Compound": "CCN(CC)C(=O)N(CC)CC", "log10(solubility)": 2.37}
{"Compound": "CCS(=O)(=O)CI", "log10(solubility)": 2.03}
{"Compound": "CN(C)CCCCl", "log10(solubility)": 2.80}
{"Compound": "CC(C)[C@H](NC(=O)CN)C(=O)O (H-Gly-Val-OH)", "log10(solubility)": 3.46}
{"Compound": "CC1(O)CCC(C)(O)CC1 (centres undefined)", "log10(solubility)": 2.39}
{"Compound": "CC(=O)OC(C)C#N (centres undefined)", "log10(solubility)": 3.25}
{"Compound": "NC(=O)C=Cc1ccccc1[N+](=O)[O-]", "log10(solubility)": 1.72}
{"Compound": "CCOC(=O)c1c(C(=O)O)ccc(OC)c1OC", "log10(solubility)": 0.75}
{"Compound": "Cn1c(=O)ncc2[nH]c(=O)[nH]c21", "log10(solubility)": 2.21}
{"Compound": "CNCl", "log10(solubility)": 3.28}
{"Compound": "CC(S(C)(=O)=O)S(C)(=O)=O", "log10(solubility)": 1.58}
{"Compound": "CCOc1ccc(NC(=O)CO)cc1", "log10(solubility)": 0.89}
{"Compound": "O=C(O)C(=O)C(c1ccccc1)c1ccccc1", "log10(solubility)": 0.66}
{"Compound": "C[C@H](NC(=O)c1ccccc1)C(=O)O (racemic)", "log10(solubility)": 1.32}
{"Compound": "CCC(CC)(S(=O)(=O)CC)S(=O)(=O)CC", "log10(solubility)": 0.94}
{"Compound": "CC12CCC(CC1=O)C(C)(C)O2 (centres undefined)", "log10(solubility)": 2.08}
{"Compound": "CCN(CC)CCSCCN(CC)CC", "log10(solubility)": 0.63}
{"Compound": "O=C(O)C(S)CS (centres undefined)", "log10(solubility)": 2.76}
{"Compound": "NC(CS(=O)(=O)c1ccc(Cl)cc1)C(=O)O (centres undefined)", "log10(solubility)": 0.47}
{"Compound": "O=S(=O)(O)c1cc(O)c2cc(Nc3ccccc3)ccc2c1", "log10(solubility)": 1.03}
{"Compound": "CCCCCSS(=O)CCCCC (centres undefined)", "log10(solubility)": -0.17}
{"Compound": "CC(C)(S(C)(=O)=O)S(C)(=O)=O", "log10(solubility)": 1.55}
{"Compound": "O=C(O)C=CCCC(=O)O", "log10(solubility)": 1.80}
{"Compound": "CCOC(=O)N[C@@H](C=O)[C@@H](O)[C@H](O)[C@H](O)CO", "log10(solubility)": 3.11}
{"Compound": "O=C(O)C1(O)CCCCC1", "log10(solubility)": 2.67}
{"Compound": "Cc1nc2c(c(=O)[nH]c(=O)n2C)n1C", "log10(solubility)": 2.46}
{"Compound": "CCCCOC(=O)CCO", "log10(solubility)": 1.71}
{"Compound": "CCCOCC(O)COCCC", "log10(solubility)": 2.66}
{"Compound": "O=C(O)C(Cl)(Cl)CCCl", "log10(solubility)": 2.42}
{"Compound": "CC1=CCCN1C", "log10(solubility)": 3.13}
{"Compound": "CC(C)C[C@H](N)C(=O)N[C@@H](C)C(=O)NCC(=O)O (H-Leu-Ala-Gly-OH)", "log10(solubility)": 2.10}
{"Compound": "O=C1CNC(=O)C(Cc2ccc(O)cc2)N1 (centres undefined)", "log10(solubility)": 1.96}
{"Compound": "COCCCCC=O", "log10(solubility)": 3.46}
{"Compound": "CCCCOCCOCCOC(N)=O", "log10(solubility)": 2.69}
{"Compound": "NC(=O)NCl", "log10(solubility)": 3.33}
{"Compound": "CCOC(=O)N(C)CC", "log10(solubility)": 2.58}
{"Compound": "CC(=O)C(=Cc1ccccc1)CC(=O)O", "log10(solubility)": 1.39}
{"Compound": "CCC1OCCO1", "log10(solubility)": 3.29}
{"Compound": "Cc1nn(-c2ccccc2)c(N)c1C", "log10(solubility)": 1.33}
{"Compound": "O=C1CN(CO)C(=O)CN1CO", "log10(solubility)": 2.58}
{"Compound": "NNC(=O)c1nccs1", "log10(solubility)": 2.32}
{"Compound": "CN(C)C1CCC=CCCC1 (centres undefined)", "log10(solubility)": 1.40}
{"Compound": "O=S(=O)(O)c1ncc[nH]1", "log10(solubility)": 2.93}
{"Compound": "CC(C)(NC(=O)c1ccccc1)C(N)=O", "log10(solubility)": 1.38}
{"Compound": "CN1C(=O)C(N)C(=S)N(C)C1=O (centres undefined)", "log10(solubility)": 1.88}
{"Compound": "O=c1cc(Br)c2ccccc2o1", "log10(solubility)": 1.35}
{"Compound": "O=C(O)C1CCNCC1C(=O)O (centres undefined)", "log10(solubility)": 2.46}
{"Compound": "CCC(NC(=N)N)C(=O)O (centres undefined)", "log10(solubility)": 2.14}
{"Compound": "CC=Cc1ccc(OCC(=O)O)c(OC)c1", "log10(solubility)": 1.42}
{"Compound": "O=C(c1ccc(Cl)cc1Cl)N(O)c1ccccc1", "log10(solubility)": -0.67}
{"Compound": "CC(C)CCOCC(O)CO (centres undefined)", "log10(solubility)": 1.79}
{"Compound": "CCC(CC)C(=O)N(CC)CC", "log10(solubility)": 1.91}
{"Compound": "NCCc1ccc(O)c([N+](=O)[O-])c1", "log10(solubility)": 1.66}
{"Compound": "CCC(Br)(Br)C(=O)O", "log10(solubility)": 2.13}
{"Compound": "COc1ccc(OC)c([N+](=O)[O-])c1", "log10(solubility)": -0.12}
